target: Neu5Ac(a2-6)Gal(b1-4)GlcNAc(b1-3)Gal(b1-4)GlcNAc; assay: glycan array binding signal (z-score within array); higher = stronger binding; conditions: glycan notation: IUPAC condensed, linker removed
About 410 targets per protein were measured; listed, in parts, are those with the strongest signals and a random draw of the rest.
Readout: glycan array binding signal (z-score)
Give bare numbers.

Some entries whose results are on file:
LSL-150 (Laetiporus sulphureus), Q7Z8V1 (protein) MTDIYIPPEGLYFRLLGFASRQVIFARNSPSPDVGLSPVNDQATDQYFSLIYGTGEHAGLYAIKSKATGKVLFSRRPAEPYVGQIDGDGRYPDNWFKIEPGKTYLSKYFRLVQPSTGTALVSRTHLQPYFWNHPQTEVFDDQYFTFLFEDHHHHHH = -0.079
CFEM-PPl (Pichia pastoris), F2QPV1 (protein) AVATPPACLLACAAEVVKESSDCDALNNIQCICENEGSAIHACLESTCPDGLSSTALQSFEDVCESVGTEANLDE = -0.404
EUL D1A second (Oryza sativa) (protein) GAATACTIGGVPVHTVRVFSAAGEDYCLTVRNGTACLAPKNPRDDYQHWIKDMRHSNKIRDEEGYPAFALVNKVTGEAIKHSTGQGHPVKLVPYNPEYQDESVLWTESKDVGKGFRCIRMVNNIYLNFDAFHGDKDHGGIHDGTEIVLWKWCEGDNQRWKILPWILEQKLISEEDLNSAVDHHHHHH = 0.827
GIINTLQKYYCRVRGGRCAVLSCLPKEEQIGKCSTRGRKCCRRKK [Beta-Defensin 3 (Homo sapiens), P81534] = -0.64

// for each binder in input: emit glycan array binding signal (z-score)
1. AT5G24760(45) (Arabidopsis thaliana), Q8LEB2 (protein) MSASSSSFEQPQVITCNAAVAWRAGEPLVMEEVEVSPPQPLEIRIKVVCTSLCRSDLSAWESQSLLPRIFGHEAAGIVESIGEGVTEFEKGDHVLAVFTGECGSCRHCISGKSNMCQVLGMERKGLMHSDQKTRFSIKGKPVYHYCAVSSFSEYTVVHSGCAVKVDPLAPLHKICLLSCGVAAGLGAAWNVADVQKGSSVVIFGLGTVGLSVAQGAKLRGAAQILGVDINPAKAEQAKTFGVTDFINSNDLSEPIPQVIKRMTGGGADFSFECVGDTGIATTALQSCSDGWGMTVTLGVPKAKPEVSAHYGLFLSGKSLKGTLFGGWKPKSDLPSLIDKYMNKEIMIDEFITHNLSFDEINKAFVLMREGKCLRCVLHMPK
2. Gal 1 (Mus musculus), P16045 (protein) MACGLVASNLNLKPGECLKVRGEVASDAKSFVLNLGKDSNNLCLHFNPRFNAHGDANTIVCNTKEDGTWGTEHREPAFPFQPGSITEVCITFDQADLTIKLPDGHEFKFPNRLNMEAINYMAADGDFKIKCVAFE

1: -0.877; 2: -0.348

Hey, just so you know, these numbers are from the supplement of paper PMC8728848.
